# Tested on: Pseudomonas aeruginosa
# experimentalProtocol: Antibacterial activity against Pseudomonas aeruginosa 19-5 assessed as inhibition of bacterial growth measured after 18 to 20 hrs by broth microdilution method
# Type: functional
# experimentalConditions: time 18-20 hrs
Measured MIC values are reported for all entries that follow.
The reply should contain only the number, in µg/mL.

[
  {
    "testSmiles": "Cc1nc(-c2ccc(CSSC3CCCCC3)cc2)ncc1C(=O)N[C@@H](CCN)C(=O)N(C)[C@@H]1C(=O)N[C@@H](C)C(=O)N[C@H](C(=O)NCC#N)Cc2ccc(OCCN)c(c2)-c2cc1ccc2OCCN.O=C(O)C(F)(F)F.O=C(O)C(F)(F)F.O=C(O)C(F)(F)F.O=C(O)C(F)(F)F",
    "MIC [µg/mL]": 4
  },
  {
    "testSmiles": "CCSSc1ccc(-c2ncc(C(=O)N[C@@H](CCN)C(=O)N(C)[C@@H]3C(=O)N[C@@H](C)C(=O)N[C@H](C(=O)NCC#N)Cc4ccc(OCCN)c(c4)-c4cc3ccc4OCCN)c(C)n2)cc1.O=C(O)C(F)(F)F.O=C(O)C(F)(F)F.O=C(O)C(F)(F)F.O=C(O)C(F)(F)F",
    "MIC [µg/mL]": 8
  },
  {
    "testSmiles": "Cc1nc(-c2ccc(CSSC(C)C)cc2)ncc1C(=O)N[C@@H](CCN)C(=O)N(C)[C@@H]1C(=O)N[C@@H](C)C(=O)N[C@H](C(=O)NCC#N)Cc2ccc(OCCN)c(c2)-c2cc1ccc2OCCN.O=C(O)C(F)(F)F.O=C(O)C(F)(F)F.O=C(O)C(F)(F)F.O=C(O)C(F)(F)F",
    "MIC [µg/mL]": 4
  },
  {
    "testSmiles": "Cc1cc(-c2ccc(CSSC(C)(C)C)cc2)ncc1C(=O)N[C@@H](CCN)C(=O)N(C)[C@@H]1C(=O)N[C@@H](C)C(=O)N[C@H](C(=O)NCC#N)Cc2ccc(OCCN)c(c2)-c2cc1ccc2OCCN.O=C(O)C(F)(F)F.O=C(O)C(F)(F)F.O=C(O)C(F)(F)F.O=C(O)C(F)(F)F",
    "MIC [µg/mL]": 6
  },
  {
    "testSmiles": "CCCSSCc1ccc(-c2ncc(C(=O)N[C@@H](CCN)C(=O)N(C)[C@@H]3C(=O)N[C@@H](C)C(=O)N[C@H](C(=O)NCC#N)Cc4ccc(OCCN)c(c4)-c4cc3ccc4OCCN)c(C)n2)cc1.O=C(O)C(F)(F)F.O=C(O)C(F)(F)F.O=C(O)C(F)(F)F.O=C(O)C(F)(F)F",
    "MIC [µg/mL]": 8
  }
]

MIC reading for Cc1nc(-c2ccc(SSC(C)(C)C)cc2)ncc1C(=O)N[C@@H](CCN)C(=O)N(C)[C@@H]1C(=O)N[C@@H](C)C(=O)N[C@H](C(=O)NCC#N)Cc2ccc(OCCN)c(c2)-c2cc1ccc2OCCN.O=C(O)C(F)(F)F.O=C(O)C(F)(F)F.O=C(O)C(F)(F)F.O=C(O)C(F)(F)F : 4

MIC reading for Cc1nc(-c2ccc(CCCSSC(C)(C)C)cc2)ncc1C(=O)N[C@@H](CCN)C(=O)N(C)[C@@H]1C(=O)N[C@@H](C)C(=O)N[C@H](C(=O)NCC#N)Cc2ccc(OCCN)c(c2)-c2cc1ccc2OCCN.O=C(O)C(F)(F)F.O=C(O)C(F)(F)F.O=C(O)C(F)(F)F.O=C(O)C(F)(F)F : 2

MIC reading for Cc1nc(-c2ccc(C(C)(C)C)cc2)ncc1C(=O)N[C@@H](CCN)C(=O)N(C)[C@@H]1C(=O)N[C@@H](C)C(=O)N[C@H](C(=O)NCC#N)c2ccc(OCCN)c(c2)-c2cc1ccc2OCCN.Cl.Cl.Cl.Cl : 32

MIC reading for Cc1nc(-c2ccc(CCSSC(C)(C)C)cc2)ncc1C(=O)N[C@@H](CCN)C(=O)N(C)[C@@H]1C(=O)N[C@@H](C)C(=O)N[C@H](C(=O)NCC#N)Cc2ccc(OCCN)c(c2)-c2cc1ccc2OCCN.O=C(O)C(F)(F)F.O=C(O)C(F)(F)F.O=C(O)C(F)(F)F.O=C(O)C(F)(F)F : 4
